Reference source for all entries: PubChem BioAssay AID1963420

System: 494315-158-R-J1-PDC complex spheroid growth, percent test/control;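 note: compound exposure lasted seven days after spheroids formed for three days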
PROCEDURE SUMMARY: Anticancer human tumor 494315-158-R-J1-PDC patient-derived soft tissue sarcoma cell line growth inhibition [Asc]
ASSAY SETUP: second compound 0.1 µM; first compound 0.001 µM; hits give low values
TEST READOUT: viability, T/C (%)
Report as a plain number; the unit % is understood.

Would you please look over these solved cases?
Cn1ncnc1[C@H]1c2n[nH]c(=O)c3cc(F)cc(c23)N[C@@H]1c1ccc(F)cc1 + Cc1c(S(C)(=O)=O)c(-c2cc(F)cc(N3CCN(c4ccc(NS(=O)(=O)c5ccc(NC(CCN6CCC(C(=O)OCCCP(=O)(O)O)CC6)CSc6ccccc6)c(S(=O)(=O)C(F)(F)F)c5)cc4)CC3)c2)c(-c2ccc(Cl)cc2)n1C(C)C    76
NC1CCC(NC2CC2c2ccccc2)CC1 (centres undefined) + CNC(C)C(=O)NC1CN(S(=O)(=O)c2cccc(S(=O)(=O)N3CCC4CCC(C(=O)NC(c5ccccc5)c5ccccc5)N4C(=O)C(NC(=O)C(C)NC)C3)c2)CCC2CCC(C(=O)NC(c3ccccc3)c3ccccc3)N2C1=O    60.9
Cn1ncnc1[C@H]1c2n[nH]c(=O)c3cc(F)cc(c23)N[C@@H]1c1ccc(F)cc1 + CNC(C)C(=O)NC1CN(S(=O)(=O)c2cccc(S(=O)(=O)N3CCC4CCC(C(=O)NC(c5ccccc5)c5ccccc5)N4C(=O)C(NC(=O)C(C)NC)C3)c2)CCC2CCC(C(=O)NC(c3ccccc3)c3ccccc3)N2C1=O    53.4

Query string: Quick check: viability, T/C of NC1CCC(NC2CC2c2ccccc2)CC1 (centres undefined) + Cc1c(S(C)(=O)=O)c(-c2cc(F)cc(N3CCN(c4ccc(NS(=O)(=O)c5ccc(NC(CCN6CCC(C(=O)OCCCP(=O)(O)O)CC6)CSc6ccccc6)c(S(=O)(=O)C(F)(F)F)c5)cc4)CC3)c2)c(-c2ccc(Cl)cc2)n1C(C)C ?
Result string: 71.3
